System: Kocuria rosea (KR)
assay-name: Effectiveness of peptides on spiked fuel samples (aqueous layer)
Assay type: cell-based
Set-up: key: (+) =1 (implying peptide activity in fuel environment); (X) = 0 (implying no activity in the desired range, indicated by microbial proliferation); Fuel x = -1(implying no activity in fuel environment)
experimental-conditions: initial screening in spiked fuel
experimental-endpoint: activity considering MIC value/efficacy upon fuel co-incubation

| smiles-entry | observed-measurement |
| --- | --- |
| CC[C@H](C)[C@H](N)C(=O)N[C@@H](CC(C)C)C(=O)N[C@H](C(=O)N[C@@H](Cc1c[nH]c2ccccc12)C(=O)N[C@@H](CCCCN)C(=O)N[C@@H](Cc1c[nH]c2ccccc12)C(=O)N1CCC[C@H]1C(=O)N[C@@H](Cc1c[nH]c2ccccc12)C(=O)N[C@@H](Cc1c[nH]c2ccccc12)C(=O)N1CCC[C@H]1C(=O)N[C@@H](Cc1c[nH]c2ccccc12)C(=O)N[C@@H](CCCNC(=N)N)C(=O)N[C@@H](CCCNC(=N)N)C(=O)O)[C@@H](C)CC | + |
| CC[C@H](C)[C@H](N)C(=O)N[C@H](C(=O)N1CCC[C@H]1C(=O)N[C@@H](Cc1c[nH]c2ccccc12)C(=O)N[C@@H](CCCCN)C(=O)N[C@@H](Cc1c[nH]c2ccccc12)C(=O)N1CCC[C@H]1C(=O)N[C@@H](Cc1c[nH]c2ccccc12)C(=O)N[C@@H](Cc1c[nH]c2ccccc12)C(=O)N1CCC[C@H]1C(=O)N[C@@H](Cc1c[nH]c2ccccc12)C(=O)N[C@@H](CCCNC(=N)N)C(=O)N[C@@H](CCCNC(=N)N)C(=O)O)[C@@H](C)CC | Fuel x |
| CC(C)C[C@H](NC(=O)[C@@H](N)Cc1ccc(O)cc1)C(=O)N1CCC[C@H]1C(=O)N[C@@H](Cc1c[nH]c2ccccc12)C(=O)N[C@@H](CCCCN)C(=O)N[C@@H](Cc1c[nH]c2ccccc12)C(=O)N1CCC[C@H]1C(=O)N[C@@H](Cc1c[nH]c2ccccc12)C(=O)N[C@@H](Cc1c[nH]c2ccccc12)C(=O)N1CCC[C@H]1C(=O)N[C@@H](Cc1c[nH]c2ccccc12)C(=O)N[C@@H](CCCNC(=N)N)C(=O)N[C@@H](CCCNC(=N)N)C(=O)O | Fuel x |
| CC[C@H](C)[C@H](N)C(=O)N[C@@H](CC(C)C)C(=O)N[C@H](C(=O)N[C@@H](Cc1c[nH]c2ccccc12)C(=O)N[C@@H](CCCCN)C(=O)N[C@@H](Cc1c[nH]c2ccccc12)C(=O)N1CCC[C@H]1C(=O)N[C@@H](Cc1c[nH]c2ccccc12)C(=O)N[C@@H](Cc1c[nH]c2ccccc12)C(=O)N1CCC[C@H]1C(=O)N[C@@H](Cc1c[nH]c2ccccc12)C(=O)N[C@@H](CCCNC(=N)N)C(=O)N[C@@H](CCCNC(=N)N)C(=O)O)C(C)C | X |

----------
Tested on: Bacillus licheniformis (BL)
assay-name: Effectiveness of peptides on spiked fuel samples (aqueous layer)
Type: cell-based
Parameters: key: (+) =1 (implying peptide activity in fuel environment); (X) = 0 (implying no activity in the desired range, indicated by microbial proliferation); Fuel x = -1(implying no activity in fuel environment)
experimental-conditions: initial screening in spiked fuel
Method: To study the partitioning of microbes in fuel tanks, filter-sterilized fuel was mixed with BH medium in a 1:1 (v/v) ratio. […] Visible growth was assessed, and aliquots from both the aqueous and fuel phases were plated on nutrient agar plates to evaluate microbial growth. […] Microbial growth was monitored at regular intervals by plating aliquots from the aqueous layer on the nutrient agar plates. […]
experimental-endpoint: activity considering MIC value/efficacy upon fuel co-incubation

| smiles-entry | measurement-target | observed-measurement |
| --- | --- | --- |
| CC[C@H](C)[C@H](N)C(=O)N[C@@H](CC(C)C)C(=O)N[C@@H](Cc1ccccc1)C(=O)N[C@@H](Cc1c[nH]c2ccccc12)C(=O)N[C@@H](CCCCN)C(=O)N[C@@H](Cc1c[nH]c2ccccc12)C(=O)N1CCC[C@H]1C(=O)N[C@@H](Cc1c[nH]c2ccccc12)C(=O)N[C@@H](Cc1c[nH]c2ccccc12)C(=O)N1CCC[C@H]1C(=O)N[C@@H](Cc1c[nH]c2ccccc12)C(=O)N[C@@H](CCCNC(=N)N)C(=O)N[C@@H](CCCNC(=N)N)C(=O)O | Bacillus licheniformis (BL) | + |
| CC[C@H](C)[C@H](N)C(=O)N[C@H](C(=O)N1CCC[C@H]1C(=O)N[C@@H](Cc1c[nH]c2ccccc12)C(=O)N[C@@H](CCCCN)C(=O)N[C@@H](Cc1c[nH]c2ccccc12)C(=O)N1CCC[C@H]1C(=O)N[C@@H](Cc1c[nH]c2ccccc12)C(=O)N[C@@H](Cc1c[nH]c2ccccc12)C(=O)N1CCC[C@H]1C(=O)N[C@@H](Cc1c[nH]c2ccccc12)C(=O)N[C@@H](CCCNC(=N)N)C(=O)N[C@@H](CCCNC(=N)N)C(=O)O)[C@@H](C)CC | Bacillus licheniformis (BL) | + |
